Assay: Total plasma concentration in SCID mouse xenografted with PTEN-null human PC3 cells at 200 mg/kg, po measured after 4 hrs
Assay type: ADME, organism-based, PC-3
Parameters: dose 200 mg/kg, route oral
metric: concentration at 4 h

[[record]]
compound = "CC(Nc1ccc(F)c(F)c1)c1cc(C(=O)N(C)C)cn2c(=O)cc(N3CCOCC3)nc12 (single isomer, unassigned; (-))"
metric = "concentration at 4 h"
recorded_value = "2300 nM"


* * *

Test: Intrinsic clearance in human hepatocytes measured per 10^6 cells
Assay type: ADME, cell-based, Hepatocyte
Conditions: read-out: CLH
Entry flag: Condition met if hepatocyte CLint reaches 10 µL/min/1e6 cells; Condition not met if it does not.

[[record]]
compound = "CC(Nc1cc(F)cc(F)c1F)c1cc(C(=O)N(C)C)cn2c(=O)cc(N3CCOCC3)nc12 (single isomer, unassigned; (-))"
label_value = "Condition met"

[[record]]
compound = "CC(Nc1cccc(F)c1F)c1cc(C(=O)N(C)C)cn2c(=O)cc(N3CCOCC3)nc12 (racemic)"
label_value = "Condition not met"

[[record]]
compound = "CC(Nc1cc(F)c(F)c(F)c1)c1cc(C(=O)N(C)C)cn2c(=O)cc(N3CCOCC3)nc12 (single isomer, unassigned; (-))"
label_value = "Condition met"

[[record]]
compound = "C[C@@H](Nc1cc(F)cc(F)c1)c1cc(C(=O)N2CCN(C)CC2)cn2c(=O)cc(N3CCOCC3)nc12"
label_value = "Condition not met"

[[record]]
compound = "CC(Nc1cc(F)cc(Cl)c1)c1cc(C(=O)N(C)C)cn2c(=O)cc(N3CCOCC3)nc12 (single isomer, unassigned; (-))"
label_value = "Condition met"

[[record]]
compound = "C[C@@H](Nc1cc(F)cc(F)c1)c1cc(C(=O)N(C)C)cn2c(=O)cc(N3CCOCC3)nc12"
label_value = "Condition met"


* * *

Assay: Clearance in mouse plasma at 5 umol/kg, iv and 30 umol/kg, po
Type: ADME, organism-based
metric: clearance (mL/min/kg)

[[record]]
compound = "CC(Nc1cccc(Cl)c1F)c1cc(C(=O)NCCN(C)C)cn2c(=O)cc(N3CCOCC3)nc12 (single isomer, unassigned; (-))"
metric = "clearance"
recorded_value = 10

[[record]]
compound = "C[C@@H](Nc1cc(F)cc(F)c1)c1cc(C(=O)N(C)C)cn2c(=O)cc(N3CCOCC3)nc12"
metric = "clearance"
recorded_value = 82

[[record]]
compound = "CC(Nc1ccc(F)c(F)c1)c1cc(C(=O)N(C)C)cn2c(=O)cc(N3CCOCC3)nc12 (single isomer, unassigned; (-))"
metric = "clearance"
recorded_value = 74

[[record]]
compound = "CC(Nc1ccc(F)cc1)c1cc(C(=O)N(C)C)cn2c(=O)cc(N3CCOCC3)nc12 (single isomer, unassigned; (-))"
metric = "clearance"
recorded_value = 45


* * *

Target: Phosphatidylinositol 4,5-bisphosphate 3-kinase catalytic subunit beta isoform (Homo sapiens)
Experiment: Inhibition of PI3Kbeta in human MAD-MB-468 cells assessed as inhibition of Ser473 Akt phosphorylation by cellular potency assay
metric: IC50

[[record]]
compound = "Cc1cccc(NC(C)c2cc(C)cn3c(=O)cc(N4CCOCC4)nc23)c1 (racemic)"
metric = "IC50"
recorded_value = "81 nM"

[[record]]
compound = "CC(Nc1ccc(Cl)cc1)c1cc(C(=O)NCCN(C)C)cn2c(=O)cc(N3CCOCC3)nc12 (racemic)"
metric = "IC50"
recorded_value = "75 nM"

[[record]]
compound = "CC(Nc1ccccc1)c1cc(C(=O)NCCN(C)C)cn2c(=O)cc(N3CCOCC3)nc12 (single isomer, unassigned; (-))"
metric = "IC50"
recorded_value = "8 nM"

[[record]]
compound = "CC(Nc1ccc(F)cc1)c1cc(C(=O)N(C)C)cn2c(=O)cc(N3CCOCC3)nc12 (single isomer, unassigned; (-))"
metric = "IC50"
recorded_value = "62 nM"

[[record]]
compound = "CC(Nc1cc(F)cc(F)c1)c1cc(C(=O)N(C)CCO)cn2c(=O)cc(N3CCOCC3)nc12 (racemic)"
metric = "IC50"
recorded_value = "8 nM"

[[record]]
compound = "CC(Nc1cccc(F)c1F)c1cc(C(=O)N(C)C)cn2c(=O)cc(N3CCOCC3)nc12 (racemic)"
metric = "IC50"
recorded_value = "73 nM"


* * *

Biological target: Phosphatidylinositol 4,5-bisphosphate 3-kinase catalytic subunit beta isoform (Homo sapiens, UniProt P42338)
Sequence (P42338 whole entry, canonical isoform): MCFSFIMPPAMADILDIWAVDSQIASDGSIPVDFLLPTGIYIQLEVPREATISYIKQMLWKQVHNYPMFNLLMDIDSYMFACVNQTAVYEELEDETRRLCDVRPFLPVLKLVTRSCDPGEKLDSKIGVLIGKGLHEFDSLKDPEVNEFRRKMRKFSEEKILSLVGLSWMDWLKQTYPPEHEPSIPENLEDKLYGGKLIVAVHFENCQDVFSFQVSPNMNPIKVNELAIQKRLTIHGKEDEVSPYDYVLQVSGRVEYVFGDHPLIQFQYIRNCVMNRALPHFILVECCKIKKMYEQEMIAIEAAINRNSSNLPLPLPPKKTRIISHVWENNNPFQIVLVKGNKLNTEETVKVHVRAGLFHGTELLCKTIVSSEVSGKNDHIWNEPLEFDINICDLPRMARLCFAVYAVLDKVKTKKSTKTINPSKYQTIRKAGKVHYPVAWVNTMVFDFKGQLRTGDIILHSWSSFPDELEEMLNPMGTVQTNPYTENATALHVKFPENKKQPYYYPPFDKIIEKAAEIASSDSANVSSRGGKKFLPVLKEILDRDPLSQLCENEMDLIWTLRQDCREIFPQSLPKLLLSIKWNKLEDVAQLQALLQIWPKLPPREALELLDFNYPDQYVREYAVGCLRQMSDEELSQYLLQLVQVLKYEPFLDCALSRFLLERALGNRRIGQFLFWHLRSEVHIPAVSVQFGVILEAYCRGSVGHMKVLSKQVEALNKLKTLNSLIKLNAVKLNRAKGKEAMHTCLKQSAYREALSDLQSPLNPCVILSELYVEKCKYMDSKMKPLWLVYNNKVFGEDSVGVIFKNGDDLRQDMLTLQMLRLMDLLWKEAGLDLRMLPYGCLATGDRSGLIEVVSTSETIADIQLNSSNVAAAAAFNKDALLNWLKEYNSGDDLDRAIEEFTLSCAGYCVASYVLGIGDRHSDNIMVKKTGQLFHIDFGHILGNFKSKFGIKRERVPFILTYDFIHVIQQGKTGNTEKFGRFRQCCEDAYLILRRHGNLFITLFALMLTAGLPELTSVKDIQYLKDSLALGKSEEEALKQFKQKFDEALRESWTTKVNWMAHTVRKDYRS
Experiment: Inhibition of PI3Kbeta in human MAD-MB-468 cells assessed as inhibition of Ser473 Akt phosphorylation by cellular potency assay
metric: IC50 (nM)

[[record]]
molecule = "CC(Nc1cc(F)c(F)c(F)c1)c1cc(C(=O)N(C)C)cn2c(=O)cc(N3CCOCC3)nc12 (single isomer, unassigned; (-))"
recorded_value = 11

[[record]]
molecule = "CC(Nc1ccc(F)cc1)c1cc(C(=O)NCCN(C)C)cn2c(=O)cc(N3CCOCC3)nc12 (racemic)"
recorded_value = 12

[[record]]
molecule = "CC(Nc1ccccc1Cl)c1cc(C(=O)NCCN(C)C)cn2c(=O)cc(N3CCOCC3)nc12 (racemic)"
recorded_value = 7


* * *

Assay: Buffer/octanol partition coefficient, log D of the compound at pH 7.4 by shake flask method
Format: physicochemical
Measured logD, listed per entry.
metric: logD

[[record]]
molecule = "CC(Nc1ccc(F)cc1)c1cc(C(=O)N(C)C)cn2c(=O)cc(N3CCOCC3)nc12 (single isomer, unassigned; (-))"
recorded_value = 2.3

[[record]]
molecule = "CC(Nc1cccc(F)c1F)c1cc(C(=O)N(C)C)cn2c(=O)cc(N3CCOCC3)nc12 (racemic)"
recorded_value = 2.7

[[record]]
molecule = "CC(Nc1ccccc1F)c1cc(C(=O)NCCN(C)C)cn2c(=O)cc(N3CCOCC3)nc12 (racemic)"
recorded_value = 1.9

[[record]]
molecule = "CC(Nc1cc(F)cc(F)c1)c1cc(C(=O)N(C)CCO)cn2c(=O)cc(N3CCOCC3)nc12 (racemic)"
recorded_value = 2.1

